Each entry below carries its recorded GRmax, 72 h.
- Test system: BT549
- TEST METHOD NOTES: GRmax, 72 h; higher = less effect
Give just the number in GR; leave the unit off.

Solved cases below.
{"COMPOUND": "CS(=O)(=O)N1CCN(Cc2cc3nc(-c4cccc5[nH]ncc45)nc(N4CCOCC4)c3s2)CC1 [Pictilisib/GDC0941] (max 10 µM)", "TARGET OF ASSAY": "BT549", "UNIT OF MEASURE": "GR", "GRmax, 72 h": 0.146}
{"COMPOUND": "NC(=O)Nc1cc(-c2cccc(F)c2)sc1C(=O)N[C@H]1CCCNC1 [AZD7762] (max 10 µM)", "TARGET OF ASSAY": "BT549", "UNIT OF MEASURE": "GR", "GRmax, 72 h": -0.482}
{"COMPOUND": "COc1cc([C@@H]2c3cc4c(cc3[C@@H](O[C@@H]3O[C@@H]5CO[C@@H](C)O[C@H]5[C@H](O)[C@H]3O)[C@H]3COC(=O)[C@H]23)OCO4)cc(OC)c1O [Etoposide] (max 10 µM)", "TARGET OF ASSAY": "BT549", "UNIT OF MEASURE": "GR", "GRmax, 72 h": -0.195}

Next compound, please.
Query :: // query GRmax, 72 h value for entry CCCCOc1c(C(=O)c2c(F)cc(C)cc2F)c[nH]c2nncc1-2 (max 10 µM)
Result :: -0.149

----------
- System: CAL851
- TEST METHOD NOTES: GRmax, 72 h; higher = less effect
QUANTITY KIND: GRmax, 72 h (GR)
Give just the number in GR; leave the unit off.

Solved cases below.
{"MOLECULE": "COc1cccc(OCCCN)c1-c1cc(Nc2cnc(C#N)cn2)n[nH]1", "ASSAY VALUE": 0.0306}
{"MOLECULE": "N.N.[Cl][Pt][Cl] [Cisplatin] (max 10 µM)", "ASSAY VALUE": 0.018}
{"MOLECULE": "NC(=O)Nc1cc(-c2cccc(F)c2)sc1C(=O)N[C@H]1CCCNC1 [AZD7762] (max 10 µM)", "ASSAY VALUE": -0.322}
{"MOLECULE": "Cc1cc(Nc2ncc(Cl)c(Nc3ccccc3S(=O)(=O)C(C)C)n2)c(OC(C)C)cc1C1CCNCC1 [Ceritinib/LDK378] (max 10 µM)", "ASSAY VALUE": -0.596}

Query :: // query GRmax, 72 h value for entry CCNC(=O)c1noc(-c2cc(C(C)C)c(O)cc2O)c1-c1ccc(CN2CCOCC2)cc1 [Luminespib/NVP-AUY922] (max 1 µM)
Result :: -0.384

Query :: What do you get for CN(C)C/C=C/C(=O)Nc1ccc(C(=O)N2CCC[C@@H](Nc3ncc(Cl)c(-c4c[nH]c5ccccc45)n3)C2)cc1 [THZ531] (max 1 µM) ?
Result :: -0.196

Query :: What do you get for CC(=O)O[C@H]1C(=O)[C@@]2(C)[C@H]([C@H](OC(=O)c3ccccc3)[C@]3(O)C[C@H](OC(=O)[C@H](O)[C@@H](NC(=O)c4ccccc4)c4ccccc4)C(C)=C1C3(C)C)[C@]1(OC(C)=O)CO[C@@H]1C[C@@H]2O [Paclitaxel] (max 1 µM) ?
Result :: -0.346

Query :: What do you get for `COc1ccc2c(c1)[C@]1(C[C@H]1c1ccc3c(/C=C/c4ccc(CN5C[C@@H](C)O[C@@H](C)C5)cc4)n[nH]c3c1)C(=O)N2` ?
Result :: -0.11

Query :: What do you get for CNCc1ccc(-c2[nH]c3cc(F)cc4c3c2CCNC4=O)cc1 [Rucaparib] (max 10 µM) ?
Result :: 0.44

----------
- System: EVSAT
- TEST METHOD NOTES: GRmax, 72 h; higher = less effect;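 also: breast cell lines in 384-well plates, nine doses across a 10^4 range, Dye Drop imaging of viable cells vs DMSO and time-zero plates, GR 0 means no net growth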
Each entry below carries its recorded GRmax, 72 h.
Give just the number in GR; leave the unit off.

Solved cases below.
{"COMPOUND": "CC(C)Nc1cc(-c2c[nH]c(C(=O)N[C@H](CO)c3cccc(Cl)c3)c2)c(Cl)cn1 [BVD523] (max 10 µM)", "TARGET OF ASSAY": "EVSAT", "GRmax, 72 h, GR": 0.695}
{"COMPOUND": "CC(C)NC[C@@H](C(=O)N1CCN(c2ncnc3c2[C@H](C)C[C@H]3O)CC1)c1ccc(Cl)cc1 [Ipatasertib/GDC0068] (max 10 µM)", "TARGET OF ASSAY": "EVSAT", "GRmax, 72 h, GR": -0.311}
{"COMPOUND": "CC(=O)Nc1cccc(-n2c(=O)n(C3CC3)c(=O)c3c(Nc4ccc(I)cc4F)n(C)c(=O)c(C)c32)c1 (max 1 µM)", "TARGET OF ASSAY": "EVSAT", "GRmax, 72 h, GR": 0.939}
{"COMPOUND": "C=CCn1c(=O)c2cnc(Nc3ccc(N4CCN(C)CC4)cc3)nc2n1-c1cccc(C(C)(C)O)n1 [AZD1775] (max 10 µM)", "TARGET OF ASSAY": "EVSAT", "GRmax, 72 h, GR": -0.39}
{"COMPOUND": "Cc1nc(-c2cn3c(n2)-c2ccc(-c4cnn(C(C)(C)C(N)=O)c4)cc2OCC3)n(C(C)C)n1 [Taselisib/GDC0032] (max 10 µM)", "TARGET OF ASSAY": "EVSAT", "GRmax, 72 h, GR": -0.535}
{"COMPOUND": "CNC(=O)c1cccc(-c2ccc3c(N4CCOC[C@@H]4C)nc(N4CCOC[C@@H]4C)nc3n2)c1 [AZD2014] (max 10 µM)", "TARGET OF ASSAY": "EVSAT", "GRmax, 72 h, GR": -0.21}

Query :: // query GRmax, 72 h value for entry `COc1cc(N2CCN(C)CC2)ccc1Nc1ncc2c(n1)N(C)c1ccccc1C(=O)N2CC(F)(F)F`
Result :: 0.994

----------
Each entry below carries its recorded area over the GR curve.
- System: UACC812
- TEST METHOD NOTES: area over the GR curve, 72 h; higher = more effect;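 also: Dye Drop or Deep Dye Drop imaging of viable cells in 384-well plates (Hoechst nuclei, LIVE/DEAD dye), nine half-log doses, GR normalized to DMSO controls and time-zero plates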
Give just the number in GR; leave the unit off.

Solved cases below.
{"COMPOUND": "Cc1nn(C)c(COc2ccc(N3CCN(S(=O)(=O)N(C)C)CC3)cc2)c1-c1cccc2c(CCCOc3cccc4ccccc34)c(C(=O)O)n(CCN3CCOCC3)c12 (max 10 µM)", "area over the GR curve, GR": 0.0654}
{"COMPOUND": "CCN1CCN(Cc2ccc(Nc3ncc(F)c(-c4cc(F)c5nc(C)n(C(C)C)c5c4)n3)nc2)CC1 (max 10 µM)", "area over the GR curve, GR": 1.04}
{"COMPOUND": "CN1CC[C@H](c2c(O)cc(O)c3c(=O)cc(-c4ccccc4Cl)oc23)[C@H](O)C1 [Flavopiridol] (max 1 µM)", "area over the GR curve, GR": 0.419}
{"COMPOUND": "CC(=O)c1c(C)c2cnc(Nc3ccc(N4CCN(CCOCCOCCOCCNC(=O)COc5cccc6c5C(=O)N(C5CCC(=O)NC5=O)C6=O)CC4)cn3)nc2n(C2CCCC2)c1=O (stereo unspecified) [BSJ-03-123] (max 10 µM)", "area over the GR curve, GR": 0.367}
{"COMPOUND": "O=C(c1cc(Cc2n[nH]c(=O)c3ccccc23)ccc1F)N1CCN(C(=O)C2CC2)CC1 [Olaparib/AZD2281] (max 10 µM)", "area over the GR curve, GR": -0.0835}
{"COMPOUND": "CC(=O)c1c(C)c2cnc(Nc3ccc(N4CCNCC4)cn3)nc2n(C2CCCC2)c1=O (max 3.162 µM)", "area over the GR curve, GR": 0.609}
{"COMPOUND": "CC1(N)CCN(c2cnc(-c3cccc(Cl)c3Cl)c(N)n2)CC1 [SHP099] (max 10 µM)", "area over the GR curve, GR": 0.151}
{"COMPOUND": "Nc1ccc(-c2ccc3ncc4ccc(=O)n(-c5cccc(C(F)(F)F)c5)c4c3c2)cn1 [Torin2] (max 1 µM)", "area over the GR curve, GR": 0.9}
{"COMPOUND": "CO[C@@H](C)Cn1c(=O)n(C)c2cnc3ccc(-c4cncc(C(C)(C)O)c4)cc3c21 (max 10 µM)", "area over the GR curve, GR": 1.03}
{"COMPOUND": "CC(C)NC[C@@H](C(=O)N1CCN(c2ncnc3c2[C@H](C)C[C@H]3O)CC1)c1ccc(Cl)cc1 [Ipatasertib/GDC0068] (max 10 µM)", "area over the GR curve, GR": 0.173}

Query :: Lab request: please report area over the GR curve under test system UACC812 for CN(C)C/C=C/C(=O)Nc1ccc(C(=O)Nc2cccc(Nc3cc(-c4c[nH]c5ccccc45)ncn3)c2)cc1 [THZ-P1-2] (max 10 µM)
Result :: 0.0711

Query :: What do you get for CS(=O)(=O)N1CCN(Cc2cc3nc(-c4cccc5[nH]ncc45)nc(N4CCOCC4)c3s2)CC1 [Pictilisib/GDC0941] (max 10 µM) ?
Result :: 0.6

Query :: What do you get for O=C1NC(=O)[C@@H](c2cn3c4c(cccc24)CCC3)[C@@H]1c1c[nH]c2ccccc12 [Tivantinib/ARQ197] (max 10 µM) ?
Result :: 0.667

Query :: What do you get for Cc1cc(Nc2ncc(Cl)c(Nc3ccccc3S(=O)(=O)C(C)C)n2)c(OC(C)C)cc1C1CCNCC1 [Ceritinib/LDK378] (max 10 µM) ?
Result :: 0.085

Query :: What do you get for `COc1ccc2c(c1)[C@]1(C[C@H]1c1ccc3c(/C=C/c4ccc(CN5C[C@@H](C)O[C@@H](C)C5)cc4)n[nH]c3c1)C(=O)N2` ?
Result :: 0.524

Query :: What do you get for CC(=O)Nc1cccc(-n2c(=O)n(C3CC3)c(=O)c3c(Nc4ccc(I)cc4F)n(C)c(=O)c(C)c32)c1 (max 1 µM) ?
Result :: 0.686

Query :: What do you get for CN1CCN(C(=O)c2ccc3cc(CCNc4ncnc5ccc(C#N)cc45)ccc3c2)CC1 [senexin b] (max 10 µM) ?
Result :: 0.421
